- System: ZR-75-1
- assay.protocol: viability inhibition at highest dose (% inhibition); higher = more growth inhibition
- assay.setup: 4-OH-tamoxifen in medium 0 µM; 72 h
# viability inhibition at highest dose values compiled below
recorded.metric: viability inhibition at highest dose

1) O=P(O)(O)C(O)(Cn1ccnc1)P(=O)(O)O [Zoledronic acid] (drug 10000 nM)    -6.71
2) Nc1ccccc1NC(=O)c1ccc(CNc2nccc(-c3cccnc3)n2)cc1 [Mocetotinostat (MGCD0103)] (drug 10000 nM)    32.8
3) Cc1ccc(C(=O)N(CCCN)[C@@H](c2oc3cc(Cl)ccc3c(=O)c2Cc2ccccc2)C(C)C)cc1 (drug 100 nM)    -10.8
4) C=CCn1c(=O)c2cnc(Nc3ccc(N4CCN(C)CC4)cc3)nc2n1-c1cccc(C(C)(C)O)n1 [MK-1775] (drug 10000 nM)    21.9
5) Cc1[nH]c2ccccc2c1CCNCc1ccc(/C=C/C(=O)NO)cc1 [Panobinostat] (drug 1000 nM)    50.5

====

- Test system: T-47D
- assay.protocol: relative IC50 (midpoint of fitted logistic curve, plateau may be below 50% inhibition; CellTiter-Glo viability); higher = less potent
- assay.setup: 4-OH-tamoxifen in medium 1 µM; 72 h
recorded.metric: relative IC50

1. COc1ncc(-c2ccc3nccc(-c4ccnnc4)c3c2)cc1NS(=O)(=O)c1ccc(F)cc1F    0.0197 µM
2. CN1CCN(c2nc(C3=C(c4c[nH]c5ccccc45)C(=O)NC3=O)c3ccccc3n2)CC1    > 10 µM
3. O=C(O)CC[C@H]1CC[C@@](c2cc(F)ccc2F)(S(=O)(=O)c2ccc(Cl)cc2)CC1    > 1 µM
4. C=CCN(/C=C1/C(=O)O[C@H](COC)[C@@]2(C)C1=C(O)C(=O)C1=C2[C@H](OC(C)=O)C[C@]2(C)C(=O)CC[C@@H]12)CC=C    > 10 µM
5. CN(C)CCN1C(=O)c2cccc3cc(N)cc(c23)C1=O [Amonafide]    > 10 µM
6. CC[C@@]1(O)C(=O)OCc2c1cc1n(c2=O)Cc2cc3c(CN(C)C)c(O)ccc3nc2-1    > 1 µM
7. CN(C)/N=N/c1[nH]cnc1C(N)=O    > 10 µM
8. O=C(c1cc(Cc2n[nH]c(=O)c3ccccc23)ccc1F)N1CCN(C(=O)C2CC2)CC1    > 10 µM

====

- System: T-47D
- assay.protocol: viability inhibition at highest dose (% inhibition); higher = more growth inhibition
- assay.setup: 4-OH-tamoxifen in medium 0 µM; 72 h
recorded.metric: viability inhibition at highest dose

1. CO[C@@H]1[C@H](N(C)C(=O)c2ccccc2)C[C@H]2O[C@]1(C)n1c3ccccc3c3c4c(c5c6ccccc6n2c5c31)C(=O)NC4 [Midostaurin (PKC412)] (drug 10000 nM)    18.3
2. Cc1cnc(NC(=O)Nc2cc(Br)c(C)cc2OC[C@@H]2CNCCO2)cn1 (drug 1000 nM)    -9.68
3. C[C@@H]1CCN(C(=O)CC#N)C[C@@H]1N(C)c1ncnc2[nH]ccc12 [Tofacitinib (Tasocitinib)] (drug 5000 nM)    3.16

====

- System: T-47D
- assay.protocol: relative IC50 (midpoint of fitted logistic curve, plateau may be below 50% inhibition; CellTiter-Glo viability); higher = less potent
- assay.setup: 4-OH-tamoxifen in medium 1 µM; 72 h
recorded.metric: relative IC50

1. Nc1ncn([C@@H]2O[C@H](CO)[C@@H](O)[C@H]2O)c(=O)n1    > 10000 nM
2. COc1cccc2cc(-c3nc([C@H]4CC[C@H](C(=O)O)CC4)n4ncnc(N)c34)[nH]c12    543 nM
3. C[C@]1(O)C[C@@H](c2nc(-c3ccc4ccc(-c5ccccc5)nc4c3)c3c(N)nccn32)C1    1870 nM
4. CN1CCC(COc2cnc(-c3cccc(Cn4nc(-c5cccc(C#N)c5)ccc4=O)c3)nc2)CC1    > 1000 nM
5. CC(C)(C#N)c1cc(Cn2cncn2)cc(C(C)(C)C#N)c1    > 10000 nM
6. CC1(C)CCC(c2ccc(Cl)cc2)=C(CN2CCN(c3ccc(C(=O)NS(=O)(=O)c4ccc(N[C@H](CCN5CCOCC5)CSc5ccccc5)c(S(=O)(=O)C(F)(F)F)c4)cc3)CC2)C1    > 10000 nM
7. CN[C@@H]1C[C@H]2O[C@@](C)([C@@H]1OC)n1c3ccccc3c3c4c(c5c6ccccc6n2c5c31)C(=O)N[C@H]4O    864 nM
8. C=CC(=O)N1CCC[C@@H](n2nc(-c3ccc(Oc4ccccc4)cc3)c3c(N)ncnc32)C1    > 1000 nM
9. COc1nc(N)nc2c1ncn2[C@@H]1O[C@H](CO)[C@@H](O)[C@@H]1O    > 10000 nM
10. O=c1[nH]c(=O)n([C@H]2C[C@H](O)[C@@H](CO)O2)cc1F    > 10000 nM
